Measured Target: H1047R PIK3CA enzyme (Homo sapiens, UniProt P42336, H1047R)
Sequence (P42336 whole entry H1047R): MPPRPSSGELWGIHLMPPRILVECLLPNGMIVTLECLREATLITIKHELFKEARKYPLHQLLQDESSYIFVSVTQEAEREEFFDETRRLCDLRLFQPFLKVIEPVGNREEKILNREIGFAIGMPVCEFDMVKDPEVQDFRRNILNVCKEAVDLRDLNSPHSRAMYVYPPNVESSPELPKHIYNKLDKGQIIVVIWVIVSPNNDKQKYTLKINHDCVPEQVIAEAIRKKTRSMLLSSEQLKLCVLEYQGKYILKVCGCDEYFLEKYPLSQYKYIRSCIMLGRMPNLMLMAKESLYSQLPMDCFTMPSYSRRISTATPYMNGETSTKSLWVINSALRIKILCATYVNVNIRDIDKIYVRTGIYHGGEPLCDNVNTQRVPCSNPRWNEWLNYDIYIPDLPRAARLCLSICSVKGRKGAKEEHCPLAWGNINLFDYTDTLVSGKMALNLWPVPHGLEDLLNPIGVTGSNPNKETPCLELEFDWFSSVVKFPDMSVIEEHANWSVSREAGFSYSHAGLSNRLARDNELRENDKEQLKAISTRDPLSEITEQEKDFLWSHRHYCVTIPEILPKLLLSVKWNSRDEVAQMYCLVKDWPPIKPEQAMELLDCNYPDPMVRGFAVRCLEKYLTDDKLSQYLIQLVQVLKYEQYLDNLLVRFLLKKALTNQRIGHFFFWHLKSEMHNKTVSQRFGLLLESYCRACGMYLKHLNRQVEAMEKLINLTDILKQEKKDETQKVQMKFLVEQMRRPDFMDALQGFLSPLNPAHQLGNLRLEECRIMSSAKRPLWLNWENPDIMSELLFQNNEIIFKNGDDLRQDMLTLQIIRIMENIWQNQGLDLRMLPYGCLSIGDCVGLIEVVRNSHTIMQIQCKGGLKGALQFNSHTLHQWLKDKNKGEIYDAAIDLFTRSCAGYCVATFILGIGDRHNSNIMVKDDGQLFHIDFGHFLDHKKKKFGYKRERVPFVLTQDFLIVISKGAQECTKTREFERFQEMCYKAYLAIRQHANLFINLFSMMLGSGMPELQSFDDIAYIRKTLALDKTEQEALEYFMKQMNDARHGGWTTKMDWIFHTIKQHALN
Sequence (P27986 whole entry partner): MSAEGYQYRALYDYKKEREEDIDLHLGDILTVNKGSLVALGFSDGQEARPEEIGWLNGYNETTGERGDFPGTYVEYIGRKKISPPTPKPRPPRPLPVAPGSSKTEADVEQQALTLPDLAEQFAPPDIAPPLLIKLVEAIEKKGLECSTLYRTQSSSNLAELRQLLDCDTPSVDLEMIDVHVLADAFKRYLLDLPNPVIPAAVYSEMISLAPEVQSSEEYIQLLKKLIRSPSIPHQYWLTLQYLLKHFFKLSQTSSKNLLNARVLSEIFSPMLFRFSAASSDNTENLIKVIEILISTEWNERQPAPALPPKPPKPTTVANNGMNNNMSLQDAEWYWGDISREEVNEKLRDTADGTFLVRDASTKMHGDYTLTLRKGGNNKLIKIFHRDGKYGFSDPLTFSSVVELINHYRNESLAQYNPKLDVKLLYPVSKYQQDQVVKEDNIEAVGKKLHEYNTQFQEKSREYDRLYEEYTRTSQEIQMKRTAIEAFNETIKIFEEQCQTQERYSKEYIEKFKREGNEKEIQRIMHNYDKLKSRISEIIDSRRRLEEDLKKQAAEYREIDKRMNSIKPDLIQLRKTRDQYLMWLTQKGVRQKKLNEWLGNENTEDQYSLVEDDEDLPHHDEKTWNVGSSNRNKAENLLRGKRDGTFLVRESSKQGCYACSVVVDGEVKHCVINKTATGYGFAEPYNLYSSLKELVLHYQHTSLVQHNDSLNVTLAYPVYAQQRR
Assay Protocol: ADP-Glo Biochemical PIK3CA Kinase Assay
pIC50: −log10 of the molar value.
Parameter: pIC50

// worked examples, pIC50 included
compound=Cc1ccccc1Nc1ncc(-c2cccnc2)cc1NC(=O)c1cc(F)cc(C(F)(F)F)c1 measured_target="H1047R PIK3CA enzyme (Homo sapiens, UniProt P42336, H1047R)" parameter=pIC50 result="5.00 to 6.00"
compound="CNC(=O)c1cnc(Nc2ccccc2C)c(NC(=O)C2(c3ccccc3)CC2(F)F)c1 (centres unmarked)" measured_target="H1047R PIK3CA enzyme (Homo sapiens, UniProt P42336, H1047R)" parameter=pIC50 result="4.00 to 5.00"
compound=CNC(=O)c1cnc(Nc2cccc(C)c2Cl)c(NC(=O)c2cc(F)cc(C(F)(F)F)c2)c1 measured_target="H1047R PIK3CA enzyme (Homo sapiens, UniProt P42336, H1047R)" parameter=pIC50 result="5.00 to 6.00"
compound=CNC(=O)c1cnc(Nc2ccccc2C)c(NC(=O)c2cc(F)c3cc[nH]c3c2)c1 measured_target="H1047R PIK3CA enzyme (Homo sapiens, UniProt P42336, H1047R)" parameter=pIC50 result="4.00 to 5.00"

Let us examine a further case.
Incoming: What reported pIC50 corresponds to `Cc1ccccc1Nc1cnccc1NC(=O)c1cc(F)cc(C(F)(F)F)c1` on H1047R PIK3CA enzyme (Homo sapiens, UniProt P42336, H1047R)?
Outgoing: 5.00 to 6.00

----------
Measured Target: H1047R PIK3CA enzyme (Homo sapiens, UniProt P42336, H1047R)
Assay Protocol: ADP-Glo Biochemical PIK3CA Kinase Assay
pIC50: −log10 of the molar value.
Parameter: pIC50

Recorded pIC50, per entry:
molecule="CNC(=O)c1cnc(Nc2ccccc2C)c(NC(=O)C2CCSc3ccccc32)c1 (centres unmarked)" measured_target="H1047R PIK3CA enzyme (Homo sapiens, UniProt P42336, H1047R)" result="4.00 to 5.00"
molecule="Cc1ccccc1Nc1ncc(C(O)CO)cc1NC(=O)c1cc(F)cc(C(F)(F)F)c1 (centres unmarked)" measured_target="H1047R PIK3CA enzyme (Homo sapiens, UniProt P42336, H1047R)" result="5.00 to 6.00"
molecule="CNC(=O)N1CC[C@@H](Nc2ccccc2C)[C@H](C(=O)Nc2cc(F)cc(C(F)(F)F)c2)C1 (racemic)" measured_target="H1047R PIK3CA enzyme (Homo sapiens, UniProt P42336, H1047R)" result="4.00 to 5.00"
molecule=COC(=O)Cn1cc(NC(=O)c2csc3ccccc23)c(Nc2ccccc2C)cc1=O measured_target="H1047R PIK3CA enzyme (Homo sapiens, UniProt P42336, H1047R)" result="5.00 to 6.00"

Consider now this further molecule.
Incoming: May I ask what pIC50 has been recorded for `COCCNc1ncccc1NC(=O)c1csc2ccccc12` ?
Outgoing: 4.00 to 5.00

----------
Measured Target: H1047R PIK3CA enzyme (Homo sapiens, UniProt P42336, H1047R)
Assay Protocol: ADP-Glo Biochemical PIK3CA Kinase Assay
Measurement Context: ADP-Glo biochemical PIK3CA kinase assay
pIC50: −log10 of the molar value.
Would you mind telling me the reported pIC50 of each entry?

The following compounds have reported results that may help.
compound="CCOc1c(F)c(F)cc(C(=O)Nc2cc(C(=O)NC)cnc2Nc2ccccc2C)c1F [I-512]" result="4.00 to 5.00"
compound="CNC(=O)c1cnc(Nc2ccccc2C)c(NC(=O)c2cc3cc(F)ccc3o2)c1 [I-488]" result="4.00 to 5.00"
compound="CNC(=O)c1cnc(Nc2ccccc2C)c(NC(=O)c2n[nH]c3ccc(Br)cc23)c1 [I-520]" result="≥ 7.00"
compound="Cc1cc(NC(=O)c2cc(F)cc(C(F)(F)F)c2)n(-c2ccccc2F)n1 [I-789]" result="5.00 to 6.00"
compound="CNC(=O)c1cnc(Nc2ccccc2C)c(NC(=O)c2cc(C)cc(F)c2F)c1 [I-491]" result="4.00 to 5.00"
compound="Cc1ccccc1Nc1ncc(C(=O)NCc2cn(C)nc2C)cc1NC(=O)c1cc(F)cc(C(F)(F)F)c1 [I-746]" result="5.00 to 6.00"
compound="O=C(Nc1cc(C2CC2)nn1-c1ccccc1F)c1cc(F)cc(C(F)(F)F)c1 [I-788]" result="4.00 to 5.00"
compound="Cc1ccccc1Nc1ncc(C(=O)N[C@@H]2CC[C@@H](C(=O)O)C2)cc1NC(=O)c1csc2ccccc12 (single isomer, unassigned) [I-661]" result="5.00 to 6.00"

State recorded pIC50 for all listed compounds.
1. Nc1ncc(C(=O)O)cc1NC(=O)c1csc2ccccc12 [I-673]
2. O=C(O)c1cnc(N2CCOc3ccccc32)c(NC(=O)c2csc3ccccc23)c1 [I-631]
3. CNC(=O)c1cnc(Nc2ccccc2C)c(NC(=O)c2ccnc3ccc(Br)cc23)c1 [I-444]
4. Cc1ccccc1Nc1ncc(C(=O)NCc2cccnc2)cc1NC(=O)c1cc(F)cc(C(F)(F)F)c1 [I-700]
5. CNC(=O)c1cnc(Nc2ccccc2C)c(NC(=O)Cc2csc3ccccc23)c1 [I-410]
6. Cc1ccccc1Nc1ncc(C(=O)N[C@H]2CC[C@@H](F)C2)cc1NC(=O)c1csc2ccccc12 [I-546]

Outgoing:
1: 5.00 to 6.00; 2: 5.00 to 6.00; 3: 4.00 to 5.00; 4: 6.30 to 7.00; 5: 4.00 to 5.00; 6: ≥ 7.00

Would you mind listing pIC50 for each of the following compounds?
1. CNC(=O)c1cnc(Nc2ccccc2C)c(NC(=O)c2ccc3ccccc3c2Br)c1 [I-453]
2. CNC(=O)c1cc(F)c(Nc2ccccc2C)c(NC(=O)c2csc3ccccc23)c1 [I-773]
3. CNC(=O)c1cnc(Nc2ccccc2C)c(NC(=O)c2ccnc(C(F)F)c2)c1 [I-650]

Outgoing:
4.00 to 5.00
≥ 7.00
5.00 to 6.00
